target: E. coli MurF (Escherichia coli, UniProt P11880); experiment: biochemical; conditions: 0.25 h, Table S1, PKIS screening; read-out: RA [%] at 100 µM MurF
Sequence (P11880 whole entry): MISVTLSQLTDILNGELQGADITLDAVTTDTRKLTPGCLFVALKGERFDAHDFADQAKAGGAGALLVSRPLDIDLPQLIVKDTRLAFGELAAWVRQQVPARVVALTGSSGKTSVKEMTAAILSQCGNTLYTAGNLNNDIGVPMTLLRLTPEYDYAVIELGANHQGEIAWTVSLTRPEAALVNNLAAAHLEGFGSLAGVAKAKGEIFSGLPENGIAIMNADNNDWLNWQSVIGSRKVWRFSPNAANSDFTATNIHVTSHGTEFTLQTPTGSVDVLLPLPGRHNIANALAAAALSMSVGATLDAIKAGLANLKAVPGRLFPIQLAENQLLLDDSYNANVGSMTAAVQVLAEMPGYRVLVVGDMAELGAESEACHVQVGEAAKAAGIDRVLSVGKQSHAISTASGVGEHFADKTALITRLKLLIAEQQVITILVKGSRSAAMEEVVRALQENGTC
Examples of compounds with documented remaining activity at 100 µM follow.

compound: Cc1ccc(NC(=O)c2ccnc(N3CCCC3)c2)cc1-c1ccc(C(=O)NCC2CC2)cc1 [GW769076X]
remaining activity at 100 µM / %: 62

compound: COc1ccc(-c2ccncc2)cc1C(N)=O [GSK605714A]
remaining activity at 100 µM / %: 90

compound: Cc1ccc(Nc2ccnc(Nc3cccc(C(N)=O)c3)n2)cc1O [GW575808A]
remaining activity at 100 µM / %: 100

compound: COc1ccc2ncn(-c3cc(O[C@H](C)c4ccccc4C(F)(F)F)c(C(N)=O)s3)c2c1 [GSK317315A]
remaining activity at 100 µM / %: 51

compound: CCN(CC)Cc1ccc(Nc2nccc(-c3cnn4ncccc34)n2)cc1 [GW780056X]
remaining activity at 100 µM / %: 88

compound: O=C1Nc2ccc(C(=O)c3ccco3)cc2C1=Cc1cc(Cl)c(O)c(Cl)c1 [GW406108X]
remaining activity at 100 µM / %: 79

compound: C/C(Nc1ccc(S(N)(=O)=O)cc1)=C1/C(=O)Nc2ccccc21 [GW335962X]
remaining activity at 100 µM / %: 88

compound: Cc1ccc2c(c1)C(=NNc1ccc(S(N)(=O)=O)cc1)C(=O)N2 [GW275944X]
remaining activity at 100 µM / %: 83

compound: COc1cccc(-n2ncc3c(N/N=C/c4cccc(F)c4)ncnc32)c1 [GW817394X]
remaining activity at 100 µM / %: 46
